Readings of protein stability index for the listed sequences
assay: protein stability index of a GFP-peptide fusion (yeast GPS) (PSI 1-4); higher = more stable; sorted into four equal gates, so the index is relative within each strain; details: san1∆
# print the numeric value only

Some solved entries appear below for comparison.
{"columns": ["sequence data", "observed property", "value reported"],
 "data": [
  ["AAKKAMYTLSAQDEVFS [ASC1]", "protein stability index", 2.23],
  ["DTSAEKDQIQAGKWFDP [SIR4]", "protein stability index", 3.38],
  ["TDLNQDSAAIIAATGLN [GRR1]", "protein stability index", 1.43],
  ["DELITEGNEKLAAVPAA [RPP2A]", "protein stability index", 2.74],
  ["SEYSSEASNTPIEHQFN [PRE7]", "protein stability index", 3]
]}

Here's the next entry for you.
Give its protein stability index value. Item: AADILCELQVETYGSME [RPN5]
3.27

Reference source for all entries: the supplement of paper PMC9732359
